# assaySystem: T1, human TIGIT protein (human, UniProt Q495A1 22-141, limits assumed)
# T1 construct: Recombinant protein (Genentech) used in ELISA screening and as SPR analyte; also called TIGIT antigen
# T1 sequence: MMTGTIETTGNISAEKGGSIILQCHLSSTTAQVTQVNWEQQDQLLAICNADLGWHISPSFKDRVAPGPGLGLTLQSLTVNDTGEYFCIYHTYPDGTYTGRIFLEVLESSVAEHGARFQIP
# experimentSummary: SPR, captured mAb
List of pKd values.
Note: pKd values are expressed as the negative base-10 logarithm of concentration in M.

Please review the following examples before continuing.
binder	pKd
h7E7.L1H1 (antibody, V domains shown, First humanized version; FR/HVR pieces in order; also called h1.7E7.L1H1) VH: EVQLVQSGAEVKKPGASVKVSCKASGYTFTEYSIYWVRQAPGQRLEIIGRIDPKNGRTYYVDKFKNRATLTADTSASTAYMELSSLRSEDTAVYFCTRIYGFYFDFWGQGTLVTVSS VL: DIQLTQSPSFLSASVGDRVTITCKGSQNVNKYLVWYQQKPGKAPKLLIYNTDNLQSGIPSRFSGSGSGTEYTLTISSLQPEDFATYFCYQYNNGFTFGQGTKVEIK	9.64
h15C8.L5aH9a (antibody, V domains shown, Final humanized 15C8; keeps rat VH I47, L37, A67, T71 and VL Y71; FR/HVR pieces) VH: EVQLVQSGAEVKKPGASVKVSCKASGYTFTEHSIYWLRQAPGQRLEIMGRIDPKNGRTYFVDKFKNRATITTDTSASTAYMELSSLRSEDTAVYYCARIDGFYFDFWGQGTLVTVSS VL: DIQLTQSPSFLSASVGDRVTITCKGSQNVNKYLVWYQQKPGKAPKLLIYSTDNLQSGVPSRFSGSGSGTEYTLTISSLQPEDFATYYCYQYNNGFTFGQGTKVEIK	9.42

The reported pKd of the binder h15C8.L1H5 (antibody, V domains shown, VH: A67V against h15C8.L1H1; FR/HVR pieces) VH: EVQLVQSGAEVKKPGASVKVSCKASGYTFTEHSIYWLRQAPGQRLEIIGRIDPKNGRTYFVDKFKNRVTLTTDTSASTAYMELSSLRSEDTAVYFCARIDGFYFDFWGQGTLVTVSS VL: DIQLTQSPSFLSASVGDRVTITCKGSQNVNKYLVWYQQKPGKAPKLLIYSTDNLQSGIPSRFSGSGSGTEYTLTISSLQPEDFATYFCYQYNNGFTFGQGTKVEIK was 9.15
